// reported TI value (therapy index, TC50/IC50) per item
Tested on: bovine viral diarrhea virus (BVDV-AV69)
Assay: CPE observation of effects on cytopathy caused by BVDV in MDBK cells
Details: MDBK cells, BVDV-AV69; TC50 from MTT, IC50 from CPE

Would you please look over these solved cases?
In [3]: df
Out[3]:
                                   compound                          measured_target  reported_result
0  C=C1CCC2C(C)(COC(=O)CCC(=O)O)C(OC(=O)CCC(=O)O)CCC2(C)C1C=CC1=CC(=Cc2ccc(Cl)cc2)OC1=O (stereo not drawn) [Compound E]  bovine viral diarrhea virus (BVDV-AV69)             >250
1  C=C1CCC2C(C)(CO)C(O)CCC2(C)C1C=CC1=CC(=Cc2ccc(Cl)cc2)OC1=O (stereo not drawn) [Compound A]  bovine viral diarrhea virus (BVDV-AV69)           >127.6

Value sought: TI value (therapy index, TC50/IC50), system bovine viral diarrhea virus (BVDV-AV69), item C=C1CCC2C(C)(COC(=O)c3cccnc3)C(OC(=O)c3cccnc3)CCC2(C)C1C=CC1=CC(=Cc2ccc(Cl)cc2)OC1=O (stereo not drawn) [Compound D] . Result: >127.6

src = patent US9636324B2
